# stated conditions: in methyl acetate, 278.15 K
endpoint name: solubility (mole fraction)

What the record says about O=C1c2ccccc2C(=O)N1O : solubility (mole fraction) is 0.00303

====

# stated conditions: in ethanol, 298.15 K
endpoint name: solubility (mole fraction)
Lab note: record just the number, no unit beside it.

What the record says about O=C1c2ccccc2C(=O)N1O : solubility (mole fraction) is 0.00614

====

# stated conditions: in 2-ethoxyethanol, 318.15 K
endpoint name: solubility (mole fraction)
Lab note: record just the number, no unit beside it.

What the record says about O=C1c2ccccc2C(=O)N1O : solubility (mole fraction) is 0.0404

====

# stated conditions: in ethyl acetate, 298.15 K
endpoint name: solubility (mole fraction)
Lab note: record just the number, no unit beside it.

What the record says about O=C1c2ccccc2C(=O)N1O : solubility (mole fraction) is 0.00399

====

# stated conditions: in 2-ethoxyethanol, 313.15 K
endpoint name: solubility (mole fraction)
Lab note: record just the number, no unit beside it.

What the record says about O=C1c2ccccc2C(=O)N1O : solubility (mole fraction) is 0.0364

====

# stated conditions: in 1,4-dioxane, 308.15 K
endpoint name: solubility (mole fraction)
Lab note: record just the number, no unit beside it.

What the record says about O=C1c2ccccc2C(=O)N1O : solubility (mole fraction) is 0.0286

====

# stated conditions: in ethanol, 303.15 K
endpoint name: solubility (mole fraction)
Lab note: record just the number, no unit beside it.

What the record says about O=C1c2ccccc2C(=O)N1O : solubility (mole fraction) is 0.00729

====

# stated conditions: in 2-ethoxyethanol, 308.15 K
endpoint name: solubility (mole fraction)
Lab note: record just the number, no unit beside it.

What the record says about O=C1c2ccccc2C(=O)N1O : solubility (mole fraction) is 0.0327

====

# stated conditions: in ethyl acetate, 293.15 K
endpoint name: solubility (mole fraction)
Lab note: record just the number, no unit beside it.

What the record says about O=C1c2ccccc2C(=O)N1O : solubility (mole fraction) is 0.00353

====

# stated conditions: in ethanol, 293.15 K
endpoint name: solubility (mole fraction)
Lab note: record just the number, no unit beside it.

What the record says about O=C1c2ccccc2C(=O)N1O : solubility (mole fraction) is 0.00526

====

# stated conditions: in ethanol, 318.15 K
endpoint name: solubility (mole fraction)

What the record says about O=C1c2ccccc2C(=O)N1O : solubility (mole fraction) is 0.0117

====

# stated conditions: in 2-methoxyethanol, 283.15 K
endpoint name: solubility (mole fraction)
Lab note: record just the number, no unit beside it.

What the record says about O=C1c2ccccc2C(=O)N1O : solubility (mole fraction) is 0.028
